Test system: PRKD2;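 further: KINOMEscan kinase panel screen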
Settings: concentration: 1 μM,replicates: in singlicate; n = 1
Assignment: determine reported %Inh for the given compounds.
Give bare numbers, in %.

Worked cases, answers included:
Give PRKD2 %Inh for O=C(NCCNc1ccnc(NCc2ccc(F)cc2)n1)c1cc2ccccc2s1 [GSK1379944] 70

Okay, and Cl.Cl.NC[C@H](Cc1ccc(C(F)(F)F)cc1)NC(=O)c1cc(Br)c(-c2ccnc3[nH]ccc23)s1 [GSK1487252] ? 57

And CC(C)N1C(=O)Cc2cc(Nc3ncc(C(F)(F)F)c(NCc4cccc(S(C)(=O)=O)c4)n3)ccc21 ? 16

Batch request: %Inh per item, same order as input.
1. Cl.Cl.NC[C@H](CC1CCCCC1)NC(=O)c1cc(Br)c(-c2ccnc3[nH]ccc23)s1 [GSK1581427]
2. Cc1ccc(-n2nc(C(C)(C)C)cc2NC(=O)Nc2ccc(OCCN3CCOCC3)c3ccccc23)cc1 [GW839464]

67
20

Answer for every listed entry: what is its %Inh? The entries follow.
1. C[C@@H]1CCN(C(=O)CC#N)C[C@@H]1N(C)c1ncnc2[nH]ccc12
2. Cc1cc2cn[nH]c2cc1-c1cccc2c(N)c(C(N)=O)nnc12
3. NC(=O)c1cc(-c2ccccc2)cc2c(C3CCNCC3)c[nH]c12 [GSK301362]
4. CCn1c(-c2nonc2N)nc2c(C#CC(C)(C)O)nc(OCCN)cc21.Cl.Cl [GSK902056]
5. Cc1n[nH]c2ccc(-c3cc(OC[C@@H](N)Cc4ccccc4)cnc3-c3ccoc3)cc12.O=C(O)C(F)(F)F.O=C(O)C(F)(F)F [GSK507358]
6. CN(C)CCOc1ccc(-c2cc(-c3c[nH]nc3-c3ccccn3)ccn2)cc1 [GW835314]
7. C[C@H]1Oc2cc(cnc2N)-c2c(nn(C)c2C#N)CN(C)C(=O)c2ccc(F)cc21
8. Cc1cc(C(=O)Nc2ccc(Oc3ccc4nc(NC(=O)C5CC5)cn4n3)cc2)nn1-c1ccccc1

0
89
2
14
99.2
96.1
12
0
